# Tested on: Streptomyces griseus
# METHOD SUMMARY: Antibacterial activity against Streptomyces griseus MTCC 1540 after 24 hrs
# Assay type: functional
# EXPERIMENTAL SETUP: MTCC 1540, 24 h
MEASURE NAME: MIC (µg/mL)
Express it in µg/mL; write the number only.

GIVEN SMILES | STUDY TARGET | UNIT INFO | MIC
O=C(O)c1cn(C2CC2)c2cc(N3CCNCC3)c(F)cc2c1=O | Streptomyces griseus | µg/mL | 10
Sc1nnc(CCNc2nc3ccccc3s2)n1/N=C/c1ccccc1 | Streptomyces griseus | µg/mL | 500
COc1ccc(/C=N/n2c(S)nnc2CCNc2nc3ccccc3s2)cc1OC | Streptomyces griseus | µg/mL | 100
Oc1ccc(/C=N/n2c(S)nnc2CCNc2nc3ccccc3s2)cc1 | Streptomyces griseus | µg/mL | 100

# evaluate next
Lab book: MIC of `CN(C)c1ccc(/C=N/n2c(S)nnc2CCNc2nc3ccccc3s2)cc1` noted as 100
